Items are presented alongside their recorded Pre-emergence action at 1280 g/ha against STEME in %.
Tested on: STEME
Assay: Herbicidal pre-emergence action 2b (doubly sown, 1280 g/ha)
Type: in vivo, Stellaria media
Details: doubly sown pots, dosage 1280 g/ha, visual scoring after about 3 weeks
OUTCOME_MEASURE: Pre-emergence action at 1280 g/ha against STEME in % (%)

MOLECULE	VALUE_REPORTED
COC(=O)COc1nn(-c2cnccn2)c(-c2cnc(F)c(F)c2)c1Br [Example I-42]	90
O=C(O)COc1nn(-c2nccnc2Cl)c(-c2ccc(F)nc2)c1Br [Example I-73]	100
COCCOCCOC(=O)COc1nn(-c2cnccn2)c(-c2ccc(F)nc2)c1Br [Example I-67]	100
COC(=O)C(C)Oc1nn(-c2cnccn2)c(-c2ccnc(F)c2)c1Br (racemic) [Example I-10]	100
O=C(O)COc1nn(-c2cnccn2)c(-c2cccc(F)c2)c1Br [Example I-04]	100

---

# reported Pre-emergence action against ECHCG in %; entries follow
System: ECHCG
Assay: Herbicidal pre-emergence action 2a (greenhouse pots, visual scoring)
Type: in vivo, Echinochloa crus-galli
Conditions: dosage 320 g/ha, visual scoring after about 3 weeks
Source text: [table] a) Seeds of monocotyledonous and dicotyledonous weed plants and crop plants are placed in plastic or organic plant pots and covered with soil. […] After about 3 weeks, the effect of the preparations is scored visually in comparison with untreated controls as percentages. […]
OUTCOME_MEASURE: Pre-emergence action against ECHCG in % (%)

COMPOUND	DISPLAY_UNIT	VALUE_REPORTED
CCOC(=O)[C@@H](C)Oc1nn(-c2cnccn2)c(-c2cncc(F)c2)c1Br	%	100
C[C@@H](Oc1nn(-c2cnccn2)c(-c2cncc(F)c2)c1Cl)C(=O)O	%	100
CCOC(=O)[C@@H](C)Oc1nn(-c2cnccn2)c(-c2cncc(F)c2)c1Cl	%	100
COC(=O)[C@@H](C)Oc1nn(-c2cnccn2)c(-c2ccc(F)nc2)c1Br	%	100
O=C(O)COc1nn(-c2cnccn2)c(-c2cncc(F)c2)c1Br	%	100
COC(=O)C(C)Oc1nn(-c2cnccn2)c(-c2ccnc(F)c2)c1Cl (racemic)	%	90
COC(=O)COc1nn(-c2cnccn2)c(-c2ccc(F)c(F)c2)c1Br	%	100
CCOC(=O)COc1nn(-c2cnccn2)c(-c2cncc(F)c2)c1Cl	%	100
CCOC(=O)COc1nn(-c2cnccn2)c(-c2cncc(F)c2)c1F	%	100
CCOC(=O)COc1nn(-c2cnccn2)c(-c2ccccc2)c1Br	%	80
COC(=O)[C@@H](C)Oc1nn(-c2cnccn2)c(-c2ccc(F)nc2)c1Cl	%	100
COCCOC(=O)COc1nn(-c2cnccn2)c(-c2ccc(F)nc2)c1Br	%	90
CCOC(=O)COc1nn(-c2cnccn2)c(-c2ccc(F)nc2)c1Cl	%	100
C[C@@H](Oc1nn(-c2cnccn2)c(-c2cccc(F)c2)c1Br)C(=O)O	%	100
C=CCOC(=O)C(C)Oc1nn(-c2cnccn2)c(-c2ccc(F)nc2)c1Br (racemic)	%	100
COC(=O)[C@@H](C)Oc1nn(-c2cnccn2)c(-c2ccc(F)c(F)c2)c1C#N	%	100
COC(=O)[C@@H](C)Oc1nn(-c2cnccn2)c(-c2cccc(F)c2)c1Br	%	90
C[C@@H](Oc1nn(-c2cnccn2)c(-c2cncc(F)c2)c1Br)C(=O)O	%	100
COC(=O)[C@@H](C)Oc1nn(-c2cnccn2)c(-c2ccnc(F)c2)c1Br	%	80
COC(=O)C(C)Oc1nn(-c2cnccn2)c(-c2cncc(F)c2)c1Br (racemic)	%	100
CCOC(=O)COc1nn(-c2cnccn2)c(-c2cncc(F)c2)c1Br	%	100
COC(=O)[C@@H](C)Oc1nn(-c2cnccn2)c(-c2cncc(F)c2)c1Cl	%	100
O=C(O)COc1nn(-c2cnccn2)c(-c2cncc(F)c2)c1Cl	%	90
C[C@H](Oc1nn(-c2cnccn2)c(-c2cncc(F)c2)c1Br)C(=O)O	%	90
COC(=O)COc1nn(-c2cnccn2)c(-c2ccnc(F)c2)c1Br	%	100
COC(=O)COc1nn(-c2cnccn2)c(-c2cncc(F)c2)c1Br	%	100
COCCOCCOC(=O)COc1nn(-c2cnccn2)c(-c2ccc(F)nc2)c1Br	%	90
COC(=O)[C@@H](C)Oc1nn(-c2cnccn2)c(-c2cncc(F)c2)c1Br	%	100
